Values were extracted from ChEMBL document CHEMBL1122779.

- Tested on: Rattus norvegicus
- experimental.protocol: Acute gastric toxicity (single oral dose) in male fasted rats
- Format: organism-based, Stomach
- condition.description: in vivo
observed.property: Gastric toxicity

Worked cases, answers included:
Nc1c(CC(=O)[O-])cc(Br)cc1C(=O)c1ccc(Br)cc1.[Na+]	1.1
Nc1c(CC(=O)[O-])cc(Cl)cc1C(=O)c1ccc(I)cc1.[Na+]	3.5
Nc1c(CC(=O)[O-])cc(F)cc1C(=O)c1ccc(Cl)cc1Cl.[Na+]	1

Challenge: Look up and report measured Gastric toxicity for this entry: `Cc1cc(CC(=O)[O-])c(N)c(C(=O)c2ccc(Cl)cc2)c1.[Na+]`
Response given: 0.27

Challenge: // fetch Gastric toxicity given entry `Nc1c(CC(=O)[O-])cccc1C(=O)c1ccc(Cl)cc1.[Na+]`
Response given: 0.9

Challenge: Read the entry Nc1c(CC(=O)[O-])cccc1C(=O)c1ccccc1.[Na+] [AMFENAC SODIUM] and write its reported Gastric toxicity.
Response given: 0.7

###

- Tested on: Rattus norvegicus
- experimental.protocol: Percent change in average volume of pleural fluid at a dose 4 mg/kg of indomethacin and 5-h response is evaluated by Evans blue-carrageenan induced pleural effusion assay
- Type: functional
Strictly below -40% in Change: fulfilled. Otherwise: not fulfilled.

Nc1c(CC(=O)[O-])cc(F)cc1C(=O)c1ccc(Br)cc1.[Na+]	not fulfilled
Nc1c(CC(=O)[O-])cccc1C(=O)c1ccc(Cl)c(Cl)c1.[Na+]	not fulfilled
Nc1c(CC(=O)[O-])cc(Cl)cc1C(=O)c1ccccc1.[Na+]	not fulfilled
Nc1c(CC(=O)[O-])cc(Br)cc1C(=O)c1ccc(Br)cc1.[Na+]	not fulfilled

Next up:
Challenge: Find out if reported Change for `Nc1ccc(C(=O)c2ccccc2)cc1CC(=O)O` is less than -40%
Response given: fulfilled

###

- System: Mus musculus
- experimental.protocol: Oral analgesic activity was determined in mice by the acetylcholine-induced abdominal constriction assay upon ip administration of acetylcholine bromide 5 hours following oral administration
- Assay type: functional
- condition.description: Abdomen
This section presents compounds with their documented ED50 values.
Report as a plain number; the unit mg/kg is understood.

Example results:
Nc1c(CC(=O)[O-])cc(Cl)cc1C(=O)c1ccc(Br)cc1.[Na+]	0.13
Cc1cc(CC(=O)[O-])c(N)c(C(=O)c2ccc(Br)cc2)c1.[Na+]	0.7
Nc1c(CC(=O)[O-])cc(Cl)cc1C(=O)c1ccc(Br)cc1Cl.[Na+]	0.19
Nc1c(CC(=O)[O-])cc(Cl)cc1C(=O)c1ccc(I)cc1.[Na+]	0.24
Nc1c(CC(=O)[O-])cccc1C(=O)c1ccc(Cl)cc1.[Na+]	0.93
COc1ccc2c(c1)c(CC(=O)O)c(C)n2C(=O)c1ccc(Cl)cc1	0.22
Cc1cc(CC(=O)O)n(C)c1C(=O)c1ccc(Cl)cc1 [ZOMEPIRAC]	0.59
Nc1c(CC(=O)[O-])cc(F)cc1C(=O)c1ccc(Cl)cc1.[Na+]	1.4

Challenge: State measured ED50 of the compound `Nc1c(CC(=O)[O-])cc(Br)cc1C(=O)c1ccc(Br)cc1.[Na+]` with Mus musculus.
Response given: 0.2

Challenge: Fill in ED50 for `Cc1ccc(C(=O)c2cc(Cl)cc(CC(=O)[O-])c2N)cc1.[Na+]` tested with Mus musculus.
Response given: 0.43

Challenge: Report ED50 from Mus musculus testing of `Nc1c(CC(=O)[O-])cccc1C(=O)c1ccc(Br)cc1Cl.[Na+]`
Response given: 1.6

Challenge: Quote Mus musculus ED50 for entry `Cc1cc(CC(=O)[O-])c(N)c(C(=O)c2ccc(Cl)cc2)c1.[Na+]` .
Response given: 0.65

Challenge: Look up and report measured ED50 (Mus musculus) for the following compound: Nc1c(CC(=O)[O-])cccc1C(=O)c1ccc(Br)cc1.Nc1c(CC(=O)[O-])cccc1C(=O)c1ccc(Br)cc1.O.O.O.[Na+].[Na+] [BROMFENAC SODIUM]
Response given: 0.13
